The reported numbers originate from BindingDB's records for doi:10.1016/j.bioorg.2016.07.002.

tested_on: Beta-glucuronidase (Bos taurus, UniProt A3KMY8)
Sequence (A3KMY8 whole entry): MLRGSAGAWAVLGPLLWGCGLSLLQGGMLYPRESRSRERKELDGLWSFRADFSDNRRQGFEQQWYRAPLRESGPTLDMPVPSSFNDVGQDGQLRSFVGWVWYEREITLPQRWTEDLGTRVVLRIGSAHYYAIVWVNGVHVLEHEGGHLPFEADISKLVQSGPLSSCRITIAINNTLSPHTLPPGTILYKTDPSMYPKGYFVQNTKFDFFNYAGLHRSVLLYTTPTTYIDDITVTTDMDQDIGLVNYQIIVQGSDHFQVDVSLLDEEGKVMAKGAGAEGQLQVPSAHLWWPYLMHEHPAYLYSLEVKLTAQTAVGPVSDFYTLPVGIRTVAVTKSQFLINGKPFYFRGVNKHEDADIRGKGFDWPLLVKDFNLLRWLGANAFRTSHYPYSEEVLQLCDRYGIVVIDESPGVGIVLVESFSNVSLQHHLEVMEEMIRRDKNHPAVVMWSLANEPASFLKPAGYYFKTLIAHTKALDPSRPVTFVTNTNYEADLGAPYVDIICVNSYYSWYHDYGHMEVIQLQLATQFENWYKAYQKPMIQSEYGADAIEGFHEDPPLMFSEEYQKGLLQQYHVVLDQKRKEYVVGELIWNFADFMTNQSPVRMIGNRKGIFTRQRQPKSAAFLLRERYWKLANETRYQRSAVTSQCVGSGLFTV
test: β-Glucuronidase assay
pIC50: −log10 of the molar value.
observable: pIC50

Example molecules with recorded pIC50:
Cc1ccccc1S(=O)(=O)Nc1ccccc1SSc1ccccc1NS(=O)(=O)c1ccccc1C	4.46
O=S(=O)(Nc1ccccc1SSc1ccccc1NS(=O)(=O)c1cccc(Cl)c1)c1cccc(Cl)c1	4.60
COc1ccc(S(=O)(=O)Nc2ccccc2SSc2ccccc2NS(=O)(=O)c2ccc(OC)cc2)cc1	4.25
O=S(=O)(Nc1ccccc1SSc1ccccc1NS(=O)(=O)c1ccccc1F)c1ccccc1F	5.21
O=S(=O)(Nc1ccccc1SSc1ccccc1NS(=O)(=O)c1ccccc1Br)c1ccccc1Br	4.23

[I] O=[N+]([O-])c1cccc(S(=O)(=O)Nc2ccccc2SSc2ccccc2NS(=O)(=O)c2cccc([N+](=O)[O-])c2)c1
[II] O=S(=O)(Nc1ccccc1SSc1ccccc1NS(=O)(=O)c1ccc(F)cc1)c1ccc(F)cc1
[III] O=S(=O)(Nc1ccccc1SSc1ccccc1NS(=O)(=O)c1cccc(F)c1)c1cccc(F)c1
[IV] O=S(=O)(Nc1ccccc1SSc1ccccc1NS(=O)(=O)c1ccccc1Cl)c1ccccc1Cl
Asked: List items by pIC50 in falling order. Ranked list of labels, please, in the requested order.
Given back: IV, II, III, I
